settings: in n-propanol, 293.85 K
Reported endpoint: solubility (mole fraction)
A bare number is all that is needed in reply.

Which measured solubility (mole fraction) value corresponds to CC(C)C(N)=O ? 0.0909

----------
conditions: in acetonitrile, 283.95 K
Reported endpoint: solubility (mole fraction)
A bare number is all that is needed in reply.

Which measured solubility (mole fraction) value corresponds to CC(C)C(N)=O ? 0.021

----------
conditions: in isobutanol, 284.15 K
Reported endpoint: solubility (mole fraction)
A bare number is all that is needed in reply.

Which measured solubility (mole fraction) value corresponds to CC(C)C(N)=O ? 0.0737

----------
conditions: in ethyl formate, 289.15 K
Reported endpoint: solubility (mole fraction)
A bare number is all that is needed in reply.

Which measured solubility (mole fraction) value corresponds to CC(C)C(N)=O ? 0.0223

----------
settings: in ethanol, 309.05 K
Reported endpoint: solubility (mole fraction)
A bare number is all that is needed in reply.

Which measured solubility (mole fraction) value corresponds to CC(C)C(N)=O ? 0.166

----------
details: in ethyl formate, 318.25 K
Reported endpoint: solubility (mole fraction)
A bare number is all that is needed in reply.

Which measured solubility (mole fraction) value corresponds to CC(C)C(N)=O ? 0.0583

----------
details: in cyclohexanone, 299.05 K
Reported endpoint: solubility (mole fraction)
A bare number is all that is needed in reply.

Which measured solubility (mole fraction) value corresponds to CC(C)C(N)=O ? 0.0653

----------
settings: in isopropanol, 293.85 K
Reported endpoint: solubility (mole fraction)
A bare number is all that is needed in reply.

Which measured solubility (mole fraction) value corresponds to CC(C)C(N)=O ? 0.0702

----------
conditions: in chloroform, 309.15 K
Reported endpoint: solubility (mole fraction)
A bare number is all that is needed in reply.

Which measured solubility (mole fraction) value corresponds to CC(C)C(N)=O ? 0.0656
